Sourced from the FLAb antibody collection (doi:10.7554/elife.23156)

I'd appreciate it if you could supply Kd values for the items below.
B1: scFv; the commonest letter at each place (parent)
chain 1: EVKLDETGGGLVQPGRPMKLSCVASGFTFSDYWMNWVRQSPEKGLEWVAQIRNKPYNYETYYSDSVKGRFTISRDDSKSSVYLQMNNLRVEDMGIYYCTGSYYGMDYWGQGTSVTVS
chain 2: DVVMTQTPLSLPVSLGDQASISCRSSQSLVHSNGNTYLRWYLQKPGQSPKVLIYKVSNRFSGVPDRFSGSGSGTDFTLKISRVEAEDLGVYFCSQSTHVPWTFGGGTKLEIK

variants of: B1; test: Kd (Tite-Seq); conditions: with fluorescein; format: scFv 4-4-20, heavy + light

chain 1 G104P    ≥ 10 µM
chain 1 F29R V37N    ≥ 10 µM

INPUT: Request the reported Kd associated with chain 1 S101N G104N
OUTPUT: ≥ 10 µM
